Reference source: patent US9724351B2

# Lookup of reported CC50 at 5 days keyed by entry
- assayComment: Cytotoxicity Determination
- Type: cell-based
- appliedConditions: human, HEp-2 cells, without addition of virus, CCK-8 readout, bins (Table 4: greater than 100 μM; Table 5: equal to or less than 100 μM and greater than 10 μM), read-out: 50% cytotoxicity concentration (CC50)

Consider the worked cases shown below.
INSERT INTO results (molecule, reading) VALUES
  ('CCCC/C(=N\NC(=O)CNC(=O)c1ccc(OCC)c(OC)c1)c1csc2c(F)cccc12 [Compound 462A]', '> 100 µM'),
  ('COc1cc(C(=O)N[C@@H](CCCCN)C(=O)c2ccc(OC)c(-c3csc4c(F)cccc34)n2)ccc1OCCO [Compound 1835]', '10 to 100 µM'),
  ('COc1cc(C(=O)CNC(=O)c2ccc(OC)c(OC)c2)nc(-c2ccc(-c3c[nH]nn3)cc2)c1 [Compound 1405]', '10 to 100 µM'),
  ('COCC/C(=N/NC(=O)CNC(=O)c1ccc(OC)c(OC)c1)c1csc2ccccc12 [Compound 494]', '> 100 µM'),
  ('COc1ccc(C(=O)N2CCCCC2C(=O)c2ccc(OC)c(-c3csc4c(F)cccc34)n2)cc1OC (centres unmarked) [Compound 1800]', '10 to 100 µM');

### Prompt Provide only the value of recorded CC50 at 5 days for COc1ccc(C(=O)NCC(=O)N/N=C(\CCC(C)C)c2csc3ccccc23)cc1OC [Compound 455A]
### Response > 100 µM

### Prompt Please supply the value of reported CC50 at 5 days for the item COc1cc(C(=O)CNC(=O)c2ccc(OC)c(OC)c2)nc(-c2csc3c(F)cccc23)n1 [Compound 1201]
### Response > 100 µM

### Prompt Complete the entry with CC50 at 5 days for CCOc1ccc(C(=O)NCC(=O)Nc2nc3cc(Cl)ccc3n2CCOC)cc1OC [Compound 911]
### Response 10 to 100 µM

### Prompt // Input: COc1ccc(C(=O)NCC(=O)N/N=C(\CF)c2csc3ccccc23)cc1OC [Compound 444] . Output its CC50 at 5 days only.
### Response > 100 µM

### Prompt Consider the molecule COc1ccc(C(=O)NCCC(=O)N/N=C(/C)c2csc3ccccc23)cc1OC [Compound 243] . State its measured CC50 at 5 days.
### Response > 100 µM

### Prompt Output measured CC50 at 5 days for this item: COc1ccc(C(=O)NCC(=O)N/N=C/c2csc3ccccc23)cc1 [Compound 101]
### Response > 100 µM

### Prompt Look up CC50 at 5 days of C/C(=N\NC(=O)CNC(=O)c1ccc2c(c1)OCCN2C)c1csc2ccccc12 [Compound 470] and report it.
### Response > 100 µM

### Prompt Kindly indicate its recorded CC50 at 5 days. Item: COc1ccc(C(=O)NCC(=O)c2ccc(OC)c(-c3ccc4ncccc4c3)n2)cc1OC [Compound 1507]
### Response 10 to 100 µM

### Prompt Hello, please tell me recorded CC50 at 5 days for this one: COc1cc(OC)c(C(=O)NCC(=O)N/N=C(\C)c2csc3ccccc23)cc1OC [Compound 480]
### Response > 100 µM

----------
- assayComment: Cytotoxicity Determination
- Type: cell-based
- appliedConditions: human, HEp-2 cells, without addition of virus, CCK-8 readout, bins (Table 4: greater than 100 μM; Table 5: equal to or less than 100 μM and greater than 10 μM), read-out: 50% cytotoxicity concentration (CC50)
measurementName: CC50 at 5 days

INSERT INTO assay_data (molecule, reading) VALUES
  ('CNc1cc(C(=O)CNC(=O)c2ccc(OC)c(OC)c2)nc(-c2csc3c(F)cccc23)c1 [Compound 1220]', '> 100 µM'),
  ('COc1cc(C(=O)N[C@H](CO)C(=O)c2ccc(OC)c(-c3ccc(F)c(Cl)c3)n2)ccc1OCCO [Compound 1831]', '10 to 100 µM');

### Prompt Find the measured CC50 at 5 days of CCOc1ccc(C(=O)NCC(=O)Nc2nc3ccc(F)c(F)c3n2CCOC)cc1OC [Compound 915] and report it.
### Response > 100 µM

### Prompt Provide one value: measured CC50 at 5 days of COc1ccc(C(=O)NCC(=O)N/N=C(\C)c2csc3ccccc23)cc1OC [Compound 411]
### Response 10 to 100 µM

----------
- assayComment: Cytotoxicity Determination
- Assay type: cell-based
- appliedConditions: human, HEp-2 cells, without addition of virus, CCK-8 readout, bins (Table 4: greater than 100 μM; Table 5: equal to or less than 100 μM and greater than 10 μM), read-out: 50% cytotoxicity concentration (CC50)
measurementName: CC50 at 5 days

### Prompt Kindly indicate its recorded CC50 at 5 days. Item: COc1cc(C(=O)NCC(=O)c2ccc(OC)c(-c3ccc(F)c(Cl)c3)n2)ccc1OCCO
### Response > 100 µM

### Prompt Return CC50 at 5 days (reported value) for this compound: COc1cc(C(=O)NCC(=O)c2ccc(OC)c(-c3ccc(F)c(C#N)c3)n2)ccc1OCCO
### Response > 100 µM

----------
Below: a set of entries, each annotated with reported CC50 at 5 days.
- assayComment: Cytotoxicity Determination
- Type: cell-based
- appliedConditions: human, HEp-2 cells, without addition of virus, CCK-8 readout, bins (Table 4: greater than 100 μM; Table 5: equal to or less than 100 μM and greater than 10 μM), read-out: 50% cytotoxicity concentration (CC50)

Example entries and their recorded answers appear below.
INSERT INTO results (structureassmiles, reading) VALUES
  ('COc1cc(C(=O)NCC(=O)c2cc(C(C)C)cc(-c3csc4c(F)cccc34)n2)ccc1OCCO', '10 to 100 µM'),
  ('COc1cc(C(=O)NCC(=O)N(C)C(=O)N(C)c2csc3c(F)cccc23)ccc1OCCO', '> 100 µM');

Could you now look at the following molecule, please?
### Prompt Find the measured CC50 at 5 days of COc1ccc(C(=O)NCC(=O)Nc2cc3ccccc3c(=O)[nH]2)cc1OC and report it.
### Response > 100 µM

----------
CC50 at 5 days values for the compounds below.
- assayComment: Cytotoxicity Determination
- Type: cell-based
- appliedConditions: human, HEp-2 cells, without addition of virus, CCK-8 readout, bins (Table 4: greater than 100 μM; Table 5: equal to or less than 100 μM and greater than 10 μM), read-out: 50% cytotoxicity concentration (CC50)

INSERT INTO assay_data (compound, reading) VALUES
  ('COc1ccc(C(=O)NCC(=O)N/N=C2\CCCc3[nH]c4ccccc4c32)cc1OC', '10 to 100 µM'),
  ('COc1ccc(C(=O)NCC(=O)NN=C(c2ccccn2)c2ccccn2)cc1OC', '> 100 µM'),
  ('COc1ccc(C(=O)NCC(=O)NN=C(c2cccs2)c2cccs2)cc1OC', '> 100 µM');

### Prompt Answer with reported CC50 at 5 days of COc1cc(C(=O)NCC(=O)c2ccc(OC)c(-c3ccc(F)c(Cl)c3)n2)ccc1OCC(C)(C)O
### Response > 100 µM

### Prompt Check the records and state CC50 at 5 days for COc1ccc(C(=O)NCC(=O)N/N=C/c2csc3c(F)cccc23)cc1OC
### Response > 100 µM

### Prompt Output CC50 at 5 days of CCOc1ccc(C(=O)NCC(=O)Nc2cc3ccccc3n2C)cc1OC
### Response > 100 µM

### Prompt Supply CC50 at 5 days value. Item: CCOc1ccc(C(=O)NCCNC(=O)N(CCOC)c2csc3c(F)cccc23)cc1OC
### Response > 100 µM

### Prompt # return recorded CC50 at 5 days for input COc1cc(C(=O)NCC(=O)c2cccc(-c3csc4c(F)cccc34)n2)ccc1O
### Response 10 to 100 µM

----------
- assayComment: Cytotoxicity Determination
- Assay type: cell-based
- appliedConditions: human, HEp-2 cells, without addition of virus, CCK-8 readout, bins (Table 4: greater than 100 μM; Table 5: equal to or less than 100 μM and greater than 10 μM), read-out: 50% cytotoxicity concentration (CC50)
// reported CC50 at 5 days for each item listed

Here are 8 compounds together with their reported answers.
INSERT INTO assay_data (compound, measurementname, reading) VALUES
  ('COc1ccc(C(=O)NCC(=O)c2ccc(OC)c(-c3ccc4cn(C)nc4c3)n2)cc1OC [Compound 1538]', 'CC50 at 5 days', '> 100 µM'),
  ('COc1ccc(C(=O)NCC(=O)c2nc(-c3csc4c(F)cccc34)cs2)cc1OC [Compound 1206]', 'CC50 at 5 days', '10 to 100 µM'),
  ('COc1ccc(C(=O)NCC(=O)N/N=C/c2cc3c(F)cccc3s2)cc1OC [Compound 400-2]', 'CC50 at 5 days', '10 to 100 µM'),
  ('CNc1ccc(C(=O)CNC(=O)c2ccc(OCCO)c(OC)c2)nc1-c1csc2c(F)cccc12 [Compound 1253]', 'CC50 at 5 days', '> 100 µM'),
  ('COc1cc(-c2nc(C(=O)CNC(=O)c3ccc(OCCO)c(OC)c3)ccc2OC)ccc1F [Compound 1329]', 'CC50 at 5 days', '> 100 µM'),
  ('COc1ccc(C(=O)NC(C)C(=O)c2nc(-c3csc4c(F)cccc34)ccc2O)cc1OC (stereo not shown) [Compound 1304]', 'CC50 at 5 days', '10 to 100 µM'),
  ('COc1ccc(C(=O)NCC(=O)c2ccc(OC)c(-c3ccc(C(F)(F)F)cc3)n2)cc1OC [Compound 1531]', 'CC50 at 5 days', '> 100 µM'),
  ('COc1cc(-c2csc3c(F)cccc23)nc(C(=O)CNC(=O)c2ccc(OC)c(OC)c2)n1 [Compound 3401]', 'CC50 at 5 days', '> 100 µM');

### Prompt Consider the compound COc1cc(C(=O)NCC(=O)c2cccc(-c3csc4c(F)cccc34)n2)ccc1OC1CCN(C)CC1 [Compound 1234] and give its recorded CC50 at 5 days.
### Response 10 to 100 µM

### Prompt Quickly give me recorded CC50 at 5 days for CCOc1ccc(C(=O)NCC(=O)N/N=C(\C)c2csc3ccccc23)cc1N(CC)CC [Compound 505]
### Response 10 to 100 µM

### Prompt Determine its reported CC50 at 5 days: COc1ccc(C(=O)NCC(=O)c2ccc(OC)c(-c3ccc4scnc4c3)n2)cc1OC [Compound 1539]
### Response > 100 µM
